The reader will find reported kon values listed item by item below.
- study target: T1, human IL-36R extracellular domain expressed with a C-terminal mouse IgG2a Fc tag (hIL-36R-mFc) (human; mouse, UniProt Q9HB29 20-337)
- T1 construct: not shown: mouse IgG2a Fc, E98-K330
- T1 sequence (looked up): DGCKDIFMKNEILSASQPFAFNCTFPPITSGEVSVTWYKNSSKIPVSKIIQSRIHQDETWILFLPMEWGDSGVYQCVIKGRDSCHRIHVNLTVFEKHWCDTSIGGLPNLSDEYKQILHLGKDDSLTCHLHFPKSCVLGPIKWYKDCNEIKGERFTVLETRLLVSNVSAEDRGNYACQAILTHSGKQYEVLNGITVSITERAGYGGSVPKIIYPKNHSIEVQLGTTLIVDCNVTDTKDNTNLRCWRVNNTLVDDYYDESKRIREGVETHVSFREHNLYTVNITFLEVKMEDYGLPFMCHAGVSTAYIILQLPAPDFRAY
- assay explanation: SPR Biacore 4000, mAb captured on anti-hFc, 37C
- Protocol: Equilibrium dissociation constants (KD values) for IL-36R binding to purified anti-IL-36R antibodies were determined using a real-time surface plasmon resonance biosensor using a Biacore 4000 instrument. […] Kinetic association rate constant (kₐ) and dissociation rate constant (kd) were determined by fitting the real-time sensorgrams to a 1:1 binding model using Scrubber 2.0c curve fitting software. […]
Numeric only. Scale: M⁻¹ s⁻¹

binder | unit abbreviation | kon
H4H14708P2 (antibody, human IgG4 S228P, kappa, V domains shown, Fully human anti-IL-36R antibody) VH: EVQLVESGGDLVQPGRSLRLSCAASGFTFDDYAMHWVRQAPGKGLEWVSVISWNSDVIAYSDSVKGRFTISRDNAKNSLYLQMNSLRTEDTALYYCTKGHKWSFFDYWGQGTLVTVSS VL: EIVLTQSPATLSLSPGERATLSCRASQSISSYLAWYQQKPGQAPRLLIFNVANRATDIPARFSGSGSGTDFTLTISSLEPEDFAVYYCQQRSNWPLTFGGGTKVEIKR | M⁻¹ s⁻¹ | 460000

Consider the record given below.
Given the binder H4H14699P2 (antibody, human IgG4 S228P, kappa, V domains shown, Fully human anti-IL-36R antibody) VH: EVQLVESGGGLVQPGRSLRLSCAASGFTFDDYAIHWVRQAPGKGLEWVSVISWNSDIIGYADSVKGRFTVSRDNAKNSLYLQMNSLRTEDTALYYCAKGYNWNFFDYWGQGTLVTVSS VL: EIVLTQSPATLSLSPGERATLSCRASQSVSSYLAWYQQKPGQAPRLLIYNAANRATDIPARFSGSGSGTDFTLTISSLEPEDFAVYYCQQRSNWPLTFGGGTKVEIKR , write its reported kon. 594000
